src = patent US12128028B2

Biological target: human Kv1.3 (Homo sapiens (Human), UniProt P22001)
Sequence (P22001 whole entry): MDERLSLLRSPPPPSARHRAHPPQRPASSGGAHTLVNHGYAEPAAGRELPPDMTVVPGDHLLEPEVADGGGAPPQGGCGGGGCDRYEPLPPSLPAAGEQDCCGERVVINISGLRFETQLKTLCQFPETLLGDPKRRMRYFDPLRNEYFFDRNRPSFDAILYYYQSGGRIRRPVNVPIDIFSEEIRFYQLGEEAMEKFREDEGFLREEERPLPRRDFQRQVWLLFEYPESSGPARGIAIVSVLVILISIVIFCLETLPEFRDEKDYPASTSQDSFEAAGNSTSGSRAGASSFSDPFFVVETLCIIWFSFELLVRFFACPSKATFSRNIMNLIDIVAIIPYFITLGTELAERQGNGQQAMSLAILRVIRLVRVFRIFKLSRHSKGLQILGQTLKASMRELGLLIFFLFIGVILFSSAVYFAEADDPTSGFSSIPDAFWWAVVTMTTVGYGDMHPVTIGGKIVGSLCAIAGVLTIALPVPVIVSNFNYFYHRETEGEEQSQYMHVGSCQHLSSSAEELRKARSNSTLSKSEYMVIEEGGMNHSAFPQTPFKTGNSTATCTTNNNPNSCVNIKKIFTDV
Assay: Kv1.3 potency evaluation, automated patch clamp electrophysiology (QPatch HT) in CHO-Kv1.3 cells
Details: whole-cell QPatch HT, % inhibition of charge, step to +30 mV, four concentrations, N≥3 cells, read-out: hKv1.3 IC50
pIC50: −log10 of the molar value.
Classification field: enter Condition met for pIC50 values not below 7, Condition not met for values below it.

Answered examples (2):
MOLECULE	TESTED_ON	LABEL_CLASS
COC1(CNC(=O)C2NC(C34CC(N(Cc5ccc(C(F)(F)F)cc5)S(=O)(=O)c5ccc(F)cc5)(C3)C4)=NC2(C)C)CCC1 (stereo not drawn)	human Kv1.3 (Homo sapiens (Human), UniProt P22001)	Condition not met
CN(CC1CCC1)C(=O)[C@@]1(C)CN=C(C23CC(N(Cc4ccc(C(F)(F)F)cc4)S(=O)(=O)c4ccc(F)cc4)(C2)C3)N1 (mixture of isomers)	human Kv1.3 (Homo sapiens (Human), UniProt P22001)	Condition not met

Is pIC50 at least 7? Consider C[C@H](NC(=O)[C@@H]1NC(C23CC(N(Cc4ccc(Cl)c(F)c4)S(=O)(=O)c4ccccc4)(C2)C3)=NC1(C)C)C(F)(F)F (mixture of isomers) Condition met

Is pIC50 at least 7? Consider CC1(C)N=C(C23CC(N(Cc4ccc(Cl)cc4)S(=O)(=O)c4ccoc4)(C2)C3)N[C@H]1C(=O)NCCC(F)(F)F (mixture of isomers) Condition met

Is pIC50 at least 7? Consider CC1(C)N=C(C23CC(N(Cc4ccc(C#N)cc4)S(=O)(=O)c4ccccc4)(C2)C3)N[C@H]1C(=O)NCCC(F)(F)F (mixture of isomers) Condition not met

----------
Entries and their pIC50 values follow.
Biological target: human Kv1.3 (Homo sapiens (Human), UniProt P22001)
Assay: Kv1.3 potency evaluation, automated patch clamp electrophysiology (QPatch HT) in CHO-Kv1.3 cells
Conditions: whole-cell QPatch HT, % inhibition of charge, step to +30 mV, four concentrations, N≥3 cells, read-out: hKv1.3 IC50
The quantity pIC50 is defined as the negative base-10 logarithm of the molar concentration.

MOLECULE	pIC50
CC(C)(CC(F)(F)F)NC(=O)[C@@H]1NC(C23CC(N(Cc4ccc(Cl)c(F)c4)S(=O)(=O)c4ccccc4)(C2)C3)=NC1(C)C (mixture of isomers) [Example 141]	7.08
CN(C[C@H]1CC1(F)F)C(=O)[C@@H]1NC(C23CC(N(Cc4ccc(Cl)c(Cl)c4)S(=O)(=O)CCC(F)F)(C2)C3)=NC1(C)C (mixture of isomers) [Example 183]	6.97
CC1(C)N=C(C23CC(N(Cc4ccc(Cl)cc4)S(=O)(=O)c4ccccc4)(C2)C3)N[C@H]1C(=O)NCc1c(F)cc(F)cc1F (mixture of isomers) [Example 154]	7.04
CC1(C)N=C(C23CC(N(Cc4ccc(Cl)c(F)c4)S(=O)(=O)c4ccccc4O)(C2)C3)N[C@H]1C(=O)NCCC(F)(F)F (mixture of isomers) [Example 225]	6.74
CC1(C)N=C(C23CC(N(Cc4ccc(Cl)c(F)c4)S(=O)(=O)c4ccccc4)(C2)C3)N[C@H]1C(=O)NCCC1(C(F)(F)F)CC1 (mixture of isomers) [Example 149]	7.05
CC1(C)N=C(C23CC(N(Cc4ccc(Cl)c(F)c4)S(=O)(=O)c4ccccc4)(C2)C3)N[C@H]1C(=O)N1CC2(C1)CC(F)(F)C2 (mixture of isomers) [Example 198]	6.90
CC1(C)N=C(C23CC(N(Cc4ccc(Cl)cc4)S(=O)(=O)N4CCC(F)(F)C4)(C2)C3)N[C@H]1C(=O)NCCC(F)(F)F (mixture of isomers) [Example 212]	6.83

Now look at this one.
Looking up CC1(C)N=C(C23CC(N(Cc4ccc(Cl)c(F)c4)S(=O)(=O)c4ccccc4)(C2)C3)N[C@H]1C(=O)N1CC2CC2C1 (mixture of isomers) [Example 81] , I see its pIC50 listed as 7.21
